Test: Volume of distribution at steady state in male Sprague-Dawley rat at 1 mg/kg, iv measured upto 24 hrs by HPLC-MS analysis
Format: ADME, organism-based
Settings: in vivo, read-out: Vdss
measuredProperty: Vd (L/kg)
Write the answer as a number in L/kg, unit excluded.

Task: // Input: CC1(N)CCN(C(=O)c2ccc(Sc3cccc(Cl)c3Cl)o2)CC1 . Output its Vd only.
Output: 13.8

---

Experiment: Half life in male Sprague-Dawley rat at 10 mg/kg, po measured upto 24 hrs by HPLC-MS analysis
Format: ADME, organism-based
Conditions: in vivo
measuredProperty: half-life (h)
Write the answer as a number in h, unit excluded.

Task: // Input: CC1(N)CCN(C(=O)c2ccc(Sc3cccc(Cl)c3Cl)o2)CC1 . Output its half-life only.
Output: 3.95
